A set of compounds tested on Klebsiella pneumoniae 602, with measured MIC:
Give bare numbers, in µg/mL.

Example entries begin here.
Entry CC1(C)S[C@@H]2[C@H](NC(=O)[C@H](NC(=O)c3cnccc3O)C3=CCC=CC3)C(=O)N2[C@H]1C(=O)O , tested on Klebsiella pneumoniae 602, has a reported MIC of 12.5

Entry Cc1cc(C(=O)NC(C(=O)N[C@@H]2C(=O)N3[C@@H]2SC(C)(C)[C@@H]3C(=O)O)c2ccccc2)c(O)nn1 (stereo partly drawn) , tested on Klebsiella pneumoniae 602, has a reported MIC of 25

Entry CC1(C)S[C@@H]2[C@H](NC(=O)C(NC(=O)c3cnc4c(c3O)CCCCC4)c3ccccc3)C(=O)N2[C@H]1C(=O)O (stereo partly drawn) , tested on Klebsiella pneumoniae 602, has a reported MIC of 3.13

Entry CCOC(=O)Oc1c(C(=O)NC(C(=O)N[C@@H]2C(=O)N3[C@@H]2SC(C)(C)[C@@H]3C(=O)O)c2ccccc2)cnc2c1CCCCC2 (stereo partly drawn) , tested on Klebsiella pneumoniae 602, has a reported MIC of 3.13

Entry CCOC(=O)Oc1c(C(=O)N[C@@H](C(=O)N[C@@H]2C(=O)N3[C@@H]2SC(C)(C)[C@@H]3C(=O)O)c2ccccc2)cnc2c1CCC2 , tested on Klebsiella pneumoniae 602, has a reported MIC of 6.25

Moving on to the next compound.
Entry CCOC(=O)Oc1c(C(=O)N[C@@H](C(=O)N[C@@H]2C(=O)N3[C@@H]2SC(C)(C)[C@@H]3C(=O)O)c2ccccc2)cnc2c1CCCC2 , tested on Klebsiella pneumoniae 602, has a reported MIC of 6.25

----------
For each entry below, report its MIC value.
Test system: Proteus mirabilis GN2425
Give bare numbers, in µg/mL.

Entry CC1(C)S[C@@H]2[C@H](NC(=O)[C@H](NC(=O)c3cnccc3O)c3ccc(O)cc3)C(=O)N2[C@H]1C(=O)O , tested on Proteus mirabilis GN2425, has a reported MIC of 6.25

Entry CC1(C)S[C@@H]2[C@H](NC(=O)C(NC(=O)c3ccnnc3O)c3cnsc3)C(=O)N2[C@H]1C(=O)O (stereo partly drawn) , tested on Proteus mirabilis GN2425, has a reported MIC of 6.25

Entry CC(C)(C)C(=O)Oc1c(C(=O)N[C@@H](C(=O)N[C@@H]2C(=O)N3[C@@H]2SC(C)(C)[C@@H]3C(=O)O)c2ccccc2)cnc2c1CCCC2 , tested on Proteus mirabilis GN2425, has a reported MIC of 6.25

Entry Cc1cc(C(=O)NC(C(=O)N[C@@H]2C(=O)N3[C@@H]2SC(C)(C)[C@@H]3C(=O)O)c2ccccc2)c(O)nn1 (stereo partly drawn) , tested on Proteus mirabilis GN2425, has a reported MIC of 50

Entry CC1(C)S[C@@H]2[C@H](NC(=O)C(NC(=O)c3ccccn3)c3ccccc3)C(=O)N2[C@H]1C(=O)O (stereo partly drawn) [I, reference compound] , tested on Proteus mirabilis GN2425, has a reported MIC of 50

Moving on to the next compound.
Entry CC1(C)S[C@@H]2[C@H](NC(=O)C(NC(=O)c3ccnnc3O)c3cccs3)C(=O)N2[C@H]1C(=O)O (stereo partly drawn) , tested on Proteus mirabilis GN2425, has a reported MIC of 6.25

----------
A set of compounds tested on Klebsiella pneumoniae 602, with measured MIC:
Give bare numbers, in µg/mL.

Entry CC(C)CC(NC(=O)c1ccnnc1O)C(=O)N[C@@H]1C(=O)N2[C@@H]1SC(C)(C)[C@@H]2C(=O)O (stereo partly drawn) [Example 13] , tested on Klebsiella pneumoniae 602, has a reported MIC of 25

Entry CC1(C)S[C@@H]2[C@H](NC(=O)C(NC(=O)c3cccnc3)c3ccccc3)C(=O)N2[C@H]1C(=O)O (stereo partly drawn) [II, reference compound] , tested on Klebsiella pneumoniae 602, has a reported MIC of 100

Moving on to the next compound.
Entry CC1(C)S[C@@H]2[C@H](NC(=O)C(NC(=O)c3ccnnc3O)C3=CCC=CC3)C(=O)N2[C@H]1C(=O)O (stereo partly drawn) [Example 12] , tested on Klebsiella pneumoniae 602, has a reported MIC of 3.13

----------
Test system: Staphylococcus aureus 209P
QUANTITY_KIND: MIC
Please report the result as a number followed by the unit.

Go through the items and report each one's MIC.
1. CC1(C)S[C@@H]2[C@H](NC(=O)C(NC(=O)c3cncnc3O)c3ccsc3)C(=O)N2[C@H]1C(=O)O (stereo partly drawn)
2. CC1(C)S[C@@H]2[C@H](NC(=O)[C@H](NC(=O)c3cnc4c(c3O)CCC4)c3ccccc3)C(=O)N2[C@H]1C(=O)O
3. CC(=O)c1c(C)ncc(C(=O)N[C@@H](C(=O)N[C@@H]2C(=O)N3[C@@H]2SC(C)(C)[C@@H]3C(=O)O)c2ccccc2)c1O
4. CC1(C)S[C@@H]2[C@H](NC(=O)C(NC(=O)c3ccnnc3O)C3=CCC=CC3)C(=O)N2[C@H]1C(=O)O (stereo partly drawn)
5. CC1(C)S[C@@H]2[C@H](NC(=O)C(NC(=O)c3cnc4c(c3O)CCCCC4)c3ccccc3)C(=O)N2[C@H]1C(=O)O (stereo partly drawn)

["0.39 µg/mL", "0.39 µg/mL", "0.78 µg/mL", "0.2 µg/mL", "0.78 µg/mL"]

Documented MIC of Cc1ncc(C(=O)NC(C(=O)N[C@@H]2C(=O)N3[C@@H]2SC(C)(C)[C@@H]3C(=O)O)c2ccccc2)c(O)c1C(C)O (stereo partly drawn) : 0.78 µg/mL

----------
A set of compounds tested on Klebsiella pneumoniae 602, with measured log10 MIC:
Values below are the log10 of the recorded MIC, with µg/mL as the unit.

Example entries begin here.
Entry CC1(C)S[C@@H]2[C@H](NC(=O)C(NC(=O)c3cnccc3O)c3ccccc3)C(=O)N2[C@H]1C(=O)O (stereo partly shown) [Example 25] , tested on Klebsiella pneumoniae 602, has a reported log10 MIC of 1.40

Entry CC1(C)S[C@@H]2[C@H](NC(=O)C(NC(=O)c3ccnnc3O)c3cccs3)C(=O)N2[C@H]1C(=O)O (stereo partly shown) [Example 18] , tested on Klebsiella pneumoniae 602, has a reported log10 MIC of 1.10

Entry CC1(C)S[C@@H]2[C@H](NC(=O)C(NC(=O)c3ccnnc3O)c3ccsc3)C(=O)N2[C@H]1C(=O)O (stereo partly shown) [Example 15] , tested on Klebsiella pneumoniae 602, has a reported log10 MIC of 1.10

Entry CC1(C)S[C@@H]2[C@H](NC(=O)C(NC(=O)c3cnccc3O)c3cnsc3)C(=O)N2[C@H]1C(=O)O (stereo partly shown) [Example 16] , tested on Klebsiella pneumoniae 602, has a reported log10 MIC of 1.40

Entry CSc1ncc(C(=O)NC(C(=O)N[C@@H]2C(=O)N3[C@@H]2SC(C)(C)[C@@H]3C(=O)O)c2ccccc2)c(O)n1 (stereo partly shown) [Example 27] , tested on Klebsiella pneumoniae 602, has a reported log10 MIC of 1.70

Entry CC(=O)c1c(C)ncc(C(=O)N[C@@H](C(=O)N[C@@H]2C(=O)N3[C@@H]2SC(C)(C)[C@@H]3C(=O)O)c2ccccc2)c1O [Example 4] , tested on Klebsiella pneumoniae 602, has a reported log10 MIC of 1.10

Entry CC1(C)S[C@@H]2[C@H](NC(=O)C(NC(=O)c3ccnnc3O)c3cnsc3)C(=O)N2[C@H]1C(=O)O (stereo partly shown) [Example 19] , tested on Klebsiella pneumoniae 602, has a reported log10 MIC of 1.40

Entry CC1(C)S[C@@H]2[C@H](NC(=O)[C@H](NC(=O)c3cnccc3O)c3ccc(O)cc3)C(=O)N2[C@H]1C(=O)O [Example 9] , tested on Klebsiella pneumoniae 602, has a reported log10 MIC of 2.00

Entry CC1(C)S[C@@H]2[C@H](NC(=O)[C@H](NC(=O)c3cccnc3O)c3ccc(O)cc3)C(=O)N2[C@H]1C(=O)O [Example 10] , tested on Klebsiella pneumoniae 602, has a reported log10 MIC of 2.00

Entry CC1(C)S[C@@H]2[C@H](NC(=O)C(NC(=O)c3cncnc3O)c3ccsc3)C(=O)N2[C@H]1C(=O)O (stereo partly shown) [Example 17] , tested on Klebsiella pneumoniae 602, has a reported log10 MIC of 1.70

Go through the items and report each one's log10 MIC.
1. CC1(C)S[C@@H]2[C@H](NC(=O)[C@H](NC(=O)c3cnc4c(c3O)CCC4)c3ccccc3)C(=O)N2[C@H]1C(=O)O [Example 2]
2. CC(C)(C)C(=O)Oc1c(C(=O)N[C@@H](C(=O)N[C@@H]2C(=O)N3[C@@H]2SC(C)(C)[C@@H]3C(=O)O)c2ccccc2)cnc2c1CCCC2 [Example 5]
3. Cc1ncc(C(=O)NC(C(=O)N[C@@H]2C(=O)N3[C@@H]2SC(C)(C)[C@@H]3C(=O)O)c2ccccc2)c(O)c1C(C)O (stereo partly shown) [Example 22]

[1.10, 0.80, 1.10]
